protocol.summary: Cmax in Sprague-Dawley rat at 17 mg/kg, po administered via gavage by LC-MS/MS analysis
Format: ADME, organism-based
Set-up: dose 17 mg/kg, route po
cond: in vivo
experimental.readout: Cmax

Fill in: Cmax of CN1Cc2c(Cl)cc(Cl)cc2C(c2ccc(S(=O)(=O)NCCOCCOCCNC(=O)NCCOCCOCCNS(=O)(=O)c3ccc(C4CN(C)Cc5c(Cl)cc(Cl)cc54)cc3)cc2)C1 (racemic) is ___
< 2 ng/mL

###

Activity values for the compounds below.
protocol.summary: In vivo inhibition of NEH3 in Sprague-Dawley rat assessed as sodium excretion in urine at 3 mg/kg, po administered via gavage measured after 16 hrs by ion chromatography relative to control
Design: scale not given: the % may be the effect or the level left
Quick reminder: number only, in %, skip the unit.

CN1Cc2c(Cl)cc(Cl)cc2C(c2cccc(S(=O)(=O)NCCOCCOCCNC(=O)NCCOCCOCCNS(=O)(=O)c3cccc(C4CN(C)Cc5c(Cl)cc(Cl)cc54)c3)c2)C1 (stereo not given)
100
CN1Cc2c(Cl)cc(Cl)cc2C(c2ccc(S(=O)(=O)NCCOCCOCCNC(=O)NCCCCNC(=O)NCCOCCOCCNS(=O)(=O)c3ccc(C4CN(C)Cc5c(Cl)cc(Cl)cc54)cc3)cc2)C1 (racemic)
14
CN1Cc2c(Cl)cc(Cl)cc2C(c2ccc(S(=O)(=O)NCCOCCOCCNC(=O)COCC(=O)NCCOCCOCCNS(=O)(=O)c3ccc(C4CN(C)Cc5c(Cl)cc(Cl)cc54)cc3)cc2)C1 (racemic)
29
CN(CC(=O)NCCOCCOCCNS(=O)(=O)c1ccc(C2CN(C)Cc3c(Cl)cc(Cl)cc32)cc1)CC(=O)NCCOCCOCCNS(=O)(=O)c1ccc(C2CN(C)Cc3c(Cl)cc(Cl)cc32)cc1 (racemic)
45

Fill in: Activity of CN1Cc2c(Cl)cc(Cl)cc2C(c2ccc(S(=O)(=O)NCCOCCOCCNC(=O)CCC(=O)NCCOCCOCCNS(=O)(=O)c3ccc(C4CN(C)Cc5c(Cl)cc(Cl)cc54)cc3)cc2)C1 (racemic) is ___
23

Fill in: Activity of CN1Cc2c(Cl)cc(Cl)cc2C(c2ccc(S(=O)(=O)NCCOCCOCCNC(=O)NCCOCCOCCNS(=O)(=O)c3ccc(C4CN(C)Cc5c(Cl)cc(Cl)cc54)cc3)cc2)C1 (racemic) is ___
107

Fill in: Activity of CN1Cc2c(Cl)cc(Cl)cc2C(c2cccc(S(=O)(=O)NCCOCCOCCOCCNC(=O)c3ccc(C(=O)NCCOCCOCCOCCNS(=O)(=O)c4cccc(C5CN(C)Cc6c(Cl)cc(Cl)cc65)c4)cc3)c2)C1 (racemic) is ___
87

###

protocol.summary: Cmax in Sprague-Dawley rat at 1.8 mg/kg, po administered via gavage by LC-MS/MS analysis
Type: ADME, organism-based
Design: dose 1.8 mg/kg, route po
cond: in vivo
experimental.readout: Cmax

Fill in: Cmax of CN1Cc2c(Cl)cc(Cl)cc2C(c2cccc(S(=O)(=O)NCCOCCOCCOCCNC(=O)NCCOCCOCCOCCNS(=O)(=O)c3cccc(C4CN(C)Cc5c(Cl)cc(Cl)cc54)c3)c2)C1 (racemic) is ___
< 20 ng/mL

###

IC50 values for the compounds below.
subject.of.test: Sodium/hydrogen exchanger 3 (Rattus norvegicus, UniProt P26433)
Sequence (P26433 whole entry): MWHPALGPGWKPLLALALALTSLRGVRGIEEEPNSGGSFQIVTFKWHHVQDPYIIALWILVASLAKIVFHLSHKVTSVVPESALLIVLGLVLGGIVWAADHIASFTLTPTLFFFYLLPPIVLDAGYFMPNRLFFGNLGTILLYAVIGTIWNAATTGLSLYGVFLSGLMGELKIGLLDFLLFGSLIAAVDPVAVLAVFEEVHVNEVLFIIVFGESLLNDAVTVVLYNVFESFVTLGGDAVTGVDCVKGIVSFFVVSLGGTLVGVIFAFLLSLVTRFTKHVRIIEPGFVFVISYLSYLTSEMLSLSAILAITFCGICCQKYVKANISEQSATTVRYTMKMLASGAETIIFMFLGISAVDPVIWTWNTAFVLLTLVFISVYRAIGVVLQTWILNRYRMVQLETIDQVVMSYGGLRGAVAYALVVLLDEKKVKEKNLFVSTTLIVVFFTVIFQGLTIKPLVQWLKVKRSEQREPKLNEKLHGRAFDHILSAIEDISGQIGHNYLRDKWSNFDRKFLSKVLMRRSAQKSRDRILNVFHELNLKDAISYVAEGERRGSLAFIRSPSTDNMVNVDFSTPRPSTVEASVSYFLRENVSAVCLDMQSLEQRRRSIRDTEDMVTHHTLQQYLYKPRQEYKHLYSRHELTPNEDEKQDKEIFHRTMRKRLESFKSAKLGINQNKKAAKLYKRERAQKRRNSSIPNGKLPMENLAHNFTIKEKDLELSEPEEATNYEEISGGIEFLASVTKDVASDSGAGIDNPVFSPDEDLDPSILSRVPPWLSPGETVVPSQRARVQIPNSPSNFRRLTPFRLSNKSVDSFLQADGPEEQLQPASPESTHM
protocol.summary: Inhibition of rat NHE3 expressed in opossum kidney cells assessed as reduction in Na-HEPES buffer-mediated pH recovery in presence of NEH1 inhibitor ethyl isopropyl amiloride by BCECF-AM dye based fluorescence assay

The examples below pair each entry with its known result.
CN1Cc2c(Cl)cc(Cl)cc2[C@@H](c2cccc(NC(=O)[C@H](O)[C@@H](O)[C@H](O)[C@H](O)CO)c2)C1
7940 nM
CN1Cc2c(Cl)cc(Cl)cc2C(c2cccc(S(=O)(=O)NCCOCCOCCNC(=O)NCCCCNC(=O)NCCOCCOCCNS(=O)(=O)c3cccc(C4CN(C)Cc5c(Cl)cc(Cl)cc54)c3)c2)C1 (racemic)
3.16 nM
CN1Cc2c(Cl)cc(Cl)cc2C(c2cccc(S(=O)(=O)NCC(=O)O)c2)C1 (racemic)
100 nM

Fill in: IC50 of CN1Cc2c(Cl)cc(Cl)cc2C(c2cccc(S(=O)(=O)NCCOCCOCCOCCNC(=O)c3ccc(C(=O)NCCOCCOCCOCCNS(=O)(=O)c4cccc(C5CN(C)Cc6c(Cl)cc(Cl)cc65)c4)cc3)c2)C1 (racemic) is ___
25.1 nM

Fill in: IC50 of `CN1Cc2c(Cl)cc(Cl)cc2[C@H](c2cccc(S(=O)(=O)NCCOCCOCCNC(=O)NCCCCNC(=O)NCCOCCOCCNS(=O)(=O)c3cccc([C@@H]4CN(C)Cc5c(Cl)cc(Cl)cc54)c3)c2)C1` is ___
15.8 nM

Fill in: IC50 of CN1Cc2c(Cl)cc(Cl)cc2C(c2cccc(S(=O)(=O)NCCOCCOCCOCCNC(=O)Nc3ccc(NC(=O)NCCOCCOCCOCCNS(=O)(=O)c4cccc(C5CN(C)Cc6c(Cl)cc(Cl)cc65)c4)cc3)c2)C1 (racemic) is ___
6310 nM

Value source: ChEMBL document CHEMBL5143744
